test: Determination of brain exposure in Balb/c nude mice following oral administration; type: in vivo; settings: 5 mg/kg oral gavage, 8 h post dose
Values of Brain (μM) at 8 h strictly less than 0.1 µM map to Yes, and values of at least 0.1 µM map to No.

Take the molecule O=C(c1ccc(-c2nc3ccc(F)cc3o2)cc1)N1CCN(C(=O)C2(O)CC2)CC1 and say whether its Brain (μM) at 8 h is less than 0.1 µM. No

Take the molecule Cn1cc(-c2ccc(-c3ccc(C(=O)N4CCN(C(=O)C5(O)CC5)CC4)cc3)cc2)cn1 and say whether its Brain (μM) at 8 h is less than 0.1 µM. No

Take the molecule C[C@H]1CN(C(=O)c2ccc(-c3ccc4c(c3)ncn4C)cc2)CCN1C(=O)C1(O)CC1 and say whether its Brain (μM) at 8 h is less than 0.1 µM. Yes

Take the molecule Cn1cnc2cc(-c3ccc(C(=O)N4CCN(C(=O)C5(O)CC5)CC4)cc3)ccc21 and say whether its Brain (μM) at 8 h is less than 0.1 µM. Yes

Take the molecule Cn1cnc2cc(-c3ccc(C(=O)N4CCN(C(=O)C5(O)CC5)CC4)c(F)c3)ccc21 and say whether its Brain (μM) at 8 h is less than 0.1 µM. Yes

Take the molecule O=C(c1ccc(-c2nc3ccc(F)cc3o2)cc1F)N1CCN(C(=O)C2(O)CC2)CC1 and say whether its Brain (μM) at 8 h is less than 0.1 µM. No

Take the molecule C[C@H]1CN(C(=O)c2ccc(-c3ccc4c(c3)ncn4C)cc2F)CCN1C(=O)C1(O)CC1 and say whether its Brain (μM) at 8 h is less than 0.1 µM. Yes

Take the molecule C[C@H]1CN(C(=O)c2ccc(-c3nc4ccc(F)cc4o3)cc2)CCN1C(=O)C1(O)CC1 and say whether its Brain (μM) at 8 h is less than 0.1 µM. No

Take the molecule C[C@H]1CN(C(=O)c2ccc(-c3nc4ccc(F)cc4o3)cc2F)CCN1C(=O)C1(O)CC1 and say whether its Brain (μM) at 8 h is less than 0.1 µM. No

Take the molecule C[C@@H]1CN(C(=O)c2ccc(-c3nc4ccc(F)cc4o3)cc2)C[C@H](C)N1C(=O)C1(O)CC1 and say whether its Brain (μM) at 8 h is less than 0.1 µM. Yes

* * *

pIC50: −log10 of the molar value.
For each record, write down the corresponding pIC50.

pIC50 of C[C@H]1CN(C(=O)c2ccc(-c3ccc4c(c3)ncn4C)cc2)CCN1C(=O)C1(O)CC1 [Compound 11] on FASN enzyme (Homo sapiens)? > 7.00

pIC50 of C[C@H]1CN(C(=O)c2ccc(-c3nc4ccc(F)cc4o3)cc2F)CCN1C(=O)C1(N)CC1 [Compound 7] on FASN enzyme (Homo sapiens)? 6.00 to 7.00

pIC50 of C[C@H]1CN(C(=O)c2ccc(-c3nc4ccc(F)cc4o3)cc2)CCN1C(=O)C1(O)CC1 [Compound 1] on FASN enzyme (Homo sapiens)? 6.00 to 7.00

pIC50 of Cn1cc(-c2ccc(-c3ccc(C(=O)N4CCN(C(=O)C5(O)CC5)CC4)cc3)cc2)cn1 [Compound 13] on FASN enzyme (Homo sapiens)? > 7.00

pIC50 of O=C(c1ccc(-c2nc3ccc(F)cc3o2)cc1)N1CCN(C(=O)C2(O)CC2)CC1 [Compound 3] on FASN enzyme (Homo sapiens)? 6.00 to 7.00

pIC50 of O=C(c1ccc(-c2nc3ccc(F)cc3o2)cc1F)N1CCN(C(=O)C2(O)CC2)CC1 [Compound 5] on FASN enzyme (Homo sapiens)? 6.00 to 7.00

* * *

experiment: Determination of brain exposure in Balb/c nude mice following oral administration; assay type: in vivo; details: 5 mg/kg oral gavage, 2 h post dose
For each record, write down the corresponding [Brain]/[Plasma] at 2 h.
Write the value as a bare number.

Entry C[C@H]1CN(C(=O)c2ccc(-c3nc4ccc(F)cc4o3)cc2)CCN1C(=O)C1(O)CC1 : reported [Brain]/[Plasma] at 2 h = ? 0.18

Entry Cn1cc(-c2ccc(-c3ccc(C(=O)N4CCN(C(=O)C5(O)CC5)CC4)cc3)cc2)cn1 : reported [Brain]/[Plasma] at 2 h = ? 0.05

Entry O=C(c1ccc(-c2nc3ccc(F)cc3o2)cc1)N1CCN(C(=O)C2(O)CC2)CC1 : reported [Brain]/[Plasma] at 2 h = ? 0.23

Entry O=C(c1ccc(-c2nc3ccc(F)cc3o2)cc1F)N1CCN(C(=O)C2(O)CC2)CC1 : reported [Brain]/[Plasma] at 2 h = ? 0.17

* * *

test: Determination of brain exposure in Balb/c nude mice following oral administration; type: in vivo; settings: 5 mg/kg oral gavage, 8 h post dose
measured property: Plasma (μM) at 8 h (µM)
Expressed in µM, but write only the number.

Entry C[C@H]1CN(C(=O)c2ccc(-c3ccc4c(c3)ncn4C)cc2)CCN1C(=O)C1(O)CC1 : reported Plasma (μM) at 8 h = ? 0.6

Entry O=C(c1ccc(-c2nc3ccc(F)cc3o2)cc1F)N1CCN(C(=O)C2(O)CC2)CC1 : reported Plasma (μM) at 8 h = ? 3.3

Entry Cn1cc(-c2ccc(-c3ccc(C(=O)N4CCN(C(=O)C5(O)CC5)CC4)cc3)cc2)cn1 : reported Plasma (μM) at 8 h = ? 3.1

Entry C[C@H]1CN(C(=O)c2ccc(-c3nc4ccc(F)cc4o3)cc2)CCN1C(=O)C1(O)CC1 : reported Plasma (μM) at 8 h = ? 2.1

Entry Cn1cnc2cc(-c3ccc(C(=O)N4CCN(C(=O)C5(O)CC5)CC4)c(F)c3)ccc21 : reported Plasma (μM) at 8 h = ? 0.6

Entry C[C@H]1CN(C(=O)c2ccc(-c3nc4ccc(F)cc4o3)cc2F)CCN1C(=O)C1(O)CC1 : reported Plasma (μM) at 8 h = ? 1.1

Entry O=C(c1ccc(-c2nc3ccc(F)cc3o2)cc1)N1CCN(C(=O)C2(O)CC2)CC1 : reported Plasma (μM) at 8 h = ? 3.3

Entry C[C@@H]1CN(C(=O)c2ccc(-c3nc4ccc(F)cc4o3)cc2)C[C@H](C)N1C(=O)C1(O)CC1 : reported Plasma (μM) at 8 h = ? 0.06

Entry Cn1cnc2cc(-c3ccc(C(=O)N4CCN(C(=O)C5(O)CC5)CC4)cc3)ccc21 : reported Plasma (μM) at 8 h = ? 0.2

Entry C[C@H]1CN(C(=O)c2ccc(-c3ccc4c(c3)ncn4C)cc2F)CCN1C(=O)C1(O)CC1 : reported Plasma (μM) at 8 h = ? 1.0

* * *

experiment: Determination of brain exposure in Balb/c nude mice following oral administration; type: in vivo; details: 5 mg/kg oral gavage, 2 h post dose
For each record, write down the corresponding [Brain]/[Plasma] at 2 h.
Write the value as a bare number.

Entry C[C@H]1CN(C(=O)c2ccc(-c3nc4ccc(F)cc4o3)cc2F)CCN1C(=O)C1(O)CC1 : reported [Brain]/[Plasma] at 2 h = ? 0.15

Entry Cn1cnc2cc(-c3ccc(C(=O)N4CCN(C(=O)C5(O)CC5)CC4)c(F)c3)ccc21 : reported [Brain]/[Plasma] at 2 h = ? 0.006

Entry C[C@H]1CN(C(=O)c2ccc(-c3ccc4c(c3)ncn4C)cc2F)CCN1C(=O)C1(O)CC1 : reported [Brain]/[Plasma] at 2 h = ? 0.007

Entry Cn1cnc2cc(-c3ccc(C(=O)N4CCN(C(=O)C5(O)CC5)CC4)cc3)ccc21 : reported [Brain]/[Plasma] at 2 h = ? 0.014

Entry C[C@H]1CN(C(=O)c2ccc(-c3ccc4c(c3)ncn4C)cc2)CCN1C(=O)C1(O)CC1 : reported [Brain]/[Plasma] at 2 h = ? 0.005

Entry C[C@@H]1CN(C(=O)c2ccc(-c3nc4ccc(F)cc4o3)cc2)C[C@H](C)N1C(=O)C1(O)CC1 : reported [Brain]/[Plasma] at 2 h = ? 0.20

* * *

assay: Determination of brain exposure in Balb/c nude mice following oral administration; type: in vivo; details: 5 mg/kg oral gavage, 2 h post dose
For each record, write down the corresponding Brain (μM) at 2 h.
The reply must contain the numeric value and, after it, the unit.

Entry Cn1cnc2cc(-c3ccc(C(=O)N4CCN(C(=O)C5(O)CC5)CC4)cc3)ccc21 : reported Brain (μM) at 2 h = ? 0.02 µM

Entry O=C(c1ccc(-c2nc3ccc(F)cc3o2)cc1)N1CCN(C(=O)C2(O)CC2)CC1 : reported Brain (μM) at 2 h = ? 1.8 µM

Entry C[C@H]1CN(C(=O)c2ccc(-c3nc4ccc(F)cc4o3)cc2F)CCN1C(=O)C1(O)CC1 : reported Brain (μM) at 2 h = ? 1.6 µM

Entry Cn1cnc2cc(-c3ccc(C(=O)N4CCN(C(=O)C5(O)CC5)CC4)c(F)c3)ccc21 : reported Brain (μM) at 2 h = ? 0.03 µM

* * *

For each record, write down the corresponding Plasma (μM) at 2 h.
assay: Determination of brain exposure in Balb/c nude mice following oral administration; format: in vivo; settings: 5 mg/kg oral gavage, 2 h post dose
Expressed in µM, but write only the number.

Entry C[C@H]1CN(C(=O)c2ccc(-c3ccc4c(c3)ncn4C)cc2)CCN1C(=O)C1(O)CC1 [Compound 11] : reported Plasma (μM) at 2 h = ? 4.4

Entry O=C(c1ccc(-c2nc3ccc(F)cc3o2)cc1)N1CCN(C(=O)C2(O)CC2)CC1 [Compound 3] : reported Plasma (μM) at 2 h = ? 7.8

Entry Cn1cnc2cc(-c3ccc(C(=O)N4CCN(C(=O)C5(O)CC5)CC4)cc3)ccc21 [Compound 12] : reported Plasma (μM) at 2 h = ? 1.5

Entry O=C(c1ccc(-c2nc3ccc(F)cc3o2)cc1F)N1CCN(C(=O)C2(O)CC2)CC1 [Compound 5] : reported Plasma (μM) at 2 h = ? 8.4

Entry C[C@H]1CN(C(=O)c2ccc(-c3nc4ccc(F)cc4o3)cc2)CCN1C(=O)C1(O)CC1 [Compound 1] : reported Plasma (μM) at 2 h = ? 7.3

Entry Cn1cc(-c2ccc(-c3ccc(C(=O)N4CCN(C(=O)C5(O)CC5)CC4)cc3)cc2)cn1 [Compound 13] : reported Plasma (μM) at 2 h = ? 5.8

Entry Cn1cnc2cc(-c3ccc(C(=O)N4CCN(C(=O)C5(O)CC5)CC4)c(F)c3)ccc21 [Compound 9] : reported Plasma (μM) at 2 h = ? 5.2

Entry C[C@H]1CN(C(=O)c2ccc(-c3ccc4c(c3)ncn4C)cc2F)CCN1C(=O)C1(O)CC1 [Compound 10] : reported Plasma (μM) at 2 h = ? 4.4

Entry C[C@H]1CN(C(=O)c2ccc(-c3nc4ccc(F)cc4o3)cc2F)CCN1C(=O)C1(O)CC1 [Compound 4] : reported Plasma (μM) at 2 h = ? 10.6

Entry C[C@@H]1CN(C(=O)c2ccc(-c3nc4ccc(F)cc4o3)cc2)C[C@H](C)N1C(=O)C1(O)CC1 [Compound 2] : reported Plasma (μM) at 2 h = ? 1.4
